Each entry below lists one item and its recorded melting point value.

See these solved cases before continuing.
N#CN=C(N)c1ncnc2c1ncn2Cc1ccc2c(c1)Nc1nccnc1S2 : > 290 °C
NS(=O)(=O)c1ccc(CNCc2ccc3c(c2)Nc2nccnc2S3)cc1 : 210 to 212 °C
N#CN=C(N)NCc1ccc2c(c1)Nc1nccnc1S2 : 246 to 248 °C
CN1CCN(c2ncnc3c2ncn3Cc2ccc3c(c2)Nc2nccnc2S3)CC1 : 197 to 202 °C
CN1c2ccccc2Nc2nccnc21 : 229 to 231 °C

Q) Item under review: CC(CO)C1C2CCCC1CN(Cc1ccc3c(c1)Nc1nccnc1S3)C2 (centres unmarked) . Reported melting point?
A) 88 to 92 °C

Q) Item under review: COc1cc(C2CCN(Cc3ccc4c(c3)Nc3nccnc3S4)CC2)ccc1CC(=O)O . Reported melting point?
A) 171 to 177 °C (dec.)

Q) Item under review: C/C(O)=C(\C#N)C(=O)Nc1ccc(-c2cn(Cc3ccc4c(c3)Nc3nccnc3S4)cn2)cc1 . Reported melting point?
A) 259 to 261 °C

Q) Item under review: CN1c2ccc(-c3cnco3)cc2Nc2nccnc21 . Reported melting point?
A) 268 to 269 °C

Q) Item under review: CCOC(=O)CC(=O)c1ccc2c(c1)Nc1nccnc1N2C . Reported melting point?
A) 88 to 89 °C

Q) Item under review: Cc1cc(NCc2ccc3c(c2)Nc2nccnc2S3)cc(C)n1 . Reported melting point?
A) 230 to 235 °C

Q) Item under review: c1cc(NCc2ccc3c(c2)Nc2nccnc2S3)ccn1 . Reported melting point?
A) 194 to 196 °C

Q) Item under review: CCOC(=O)C(C)(C)CCCCc1ccc(NCc2ccc3c(c2)Nc2nccnc2S3)cn1 . Reported melting point?
A) 160 to 164 °C

Q) Item under review: c1cc(CNCc2ccc3c(c2)Nc2nccnc2S3)ccn1 . Reported melting point?
A) 174 to 176 °C

Q) Item under review: c1cc2ccnc-2n(Cc2ccc3c(c2)Nc2nccnc2S3)c1 . Reported melting point?
A) 210 to 214 °C

Q) Item under review: N/C(=N\[N+](=O)[O-])NCc1ccc2c(c1)Nc1nccnc1S2 . Reported melting point?
A) 226 to 228 °C

Q) Item under review: O=S(=O)(CCC1CCN(Cc2ccc3c(c2)Nc2nccnc2S3)CC1)N1CCOCC1 . Reported melting point?
A) 193 to 194 °C

Q) Item under review: CC(=O)Nc1ccc(-c2cn(Cc3ccc4c(c3)Nc3nccnc3S4)cn2)cc1 . Reported melting point?
A) 261 to 263 °C

Q) Item under review: O=C(O)CC(=O)N1CCC(NCc2ccc3c(c2)Nc2nccnc2S3)CC1 . Reported melting point?
A) 167 to 170 °C

Q) Item under review: O=S(=O)(NC1CCN(Cc2ccc3c(c2)Nc2nccnc2S3)CC1)N1CCCCC1 . Reported melting point?
A) 56 to 57 °C

Q) Item under review: CC(CCC1CCN(CCc2ccc3c(c2)Nc2nccnc2S3)CC1)C(=O)O (centres unmarked) . Reported melting point?
A) 229 to 230 °C (dec.)

Q) Item under review: OC(C#Cc1ccccc1)c1ccc2c(c1)Nc1nccnc1S2 (centres unmarked) . Reported melting point?
A) 192 to 194 °C

Q) Item under review: OCCCCN1c2ccccc2Nc2nccnc21 . Reported melting point?
A) 138 to 139 °C
